Target: TRKC (Homo sapiens, UniProt Q16288)
Construct: purchased Carna 08-196
Sequence (Q16288 32-839): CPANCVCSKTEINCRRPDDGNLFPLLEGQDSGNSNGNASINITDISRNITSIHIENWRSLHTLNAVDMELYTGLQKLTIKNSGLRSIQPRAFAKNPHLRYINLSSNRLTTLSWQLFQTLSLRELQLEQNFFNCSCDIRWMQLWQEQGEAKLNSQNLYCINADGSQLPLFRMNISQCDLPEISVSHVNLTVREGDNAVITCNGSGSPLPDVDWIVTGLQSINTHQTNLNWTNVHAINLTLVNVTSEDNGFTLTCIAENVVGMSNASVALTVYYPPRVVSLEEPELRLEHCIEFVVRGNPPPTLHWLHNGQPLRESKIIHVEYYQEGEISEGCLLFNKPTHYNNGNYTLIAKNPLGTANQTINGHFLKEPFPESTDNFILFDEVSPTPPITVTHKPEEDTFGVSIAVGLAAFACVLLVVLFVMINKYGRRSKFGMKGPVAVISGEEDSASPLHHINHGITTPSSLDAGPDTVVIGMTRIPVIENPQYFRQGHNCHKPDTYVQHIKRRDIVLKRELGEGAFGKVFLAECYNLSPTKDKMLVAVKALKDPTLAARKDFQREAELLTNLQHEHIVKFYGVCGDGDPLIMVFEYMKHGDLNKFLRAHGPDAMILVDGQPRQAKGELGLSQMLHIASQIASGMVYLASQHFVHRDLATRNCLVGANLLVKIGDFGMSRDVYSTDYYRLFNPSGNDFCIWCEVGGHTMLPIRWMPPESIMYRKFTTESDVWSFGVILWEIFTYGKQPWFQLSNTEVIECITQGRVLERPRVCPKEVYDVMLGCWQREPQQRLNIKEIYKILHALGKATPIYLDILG
Experiment: Determination of inhibitory activity against TRKC kinase (ADP-Glo Kinase Assay)
Assay type: biochemical
Conditions: ATP 5 μM, Poly (4:1 Glu, Tyr) Peptide 0.03 mg/ml
ASSAY READOUT: IC50 (nM)

Below, 5 compounds whose answers are already recorded.
CC(Oc1ccc2[nH]nc(-c3nc4c([nH]3)CN(C(C)C3CN(C)C3)C4)c2c1)c1cc(F)cc(F)c1 (centres unmarked) [Example 34] | 4.5
CC(Oc1ccc2[nH]nc(-c3nc4c([nH]3)CN(CC3CN(C)C3)C4)c2c1)c1cc(F)cc(F)c1 (centres unmarked) [Example 26] | 2
CC(Oc1ccc2[nH]nc(-c3nc4c([nH]3)CN(C(C)C3CCN(C)CC3)C4)c2c1)c1cc(F)cc(F)c1 (centres unmarked) [Example 23] | 1.1
CC(Oc1ccc2[nH]nc(-c3nc4c([nH]3)CN(CC3CCN(C)CC3)C4)c2c1)c1cc(F)cc(F)c1 (centres unmarked) [Example 15] | 0.86
CN1CCC(N2Cc3nc(-c4n[nH]c5ccc(Cc6cc(F)cc(F)c6)cc45)[nH]c3C2)CC1 [Example 14] | 11.5

[1] CC(Oc1ccc2[nH]nc(-c3nc4c([nH]3)CN(CC3CCN(C)C3)C4)c2c1)c1cc(F)cc(F)c1 (centres unmarked) [Example 20]
[2] CC(Oc1ccc2[nH]nc(-c3nc4c([nH]3)CN(C(=O)OC3CCN(C)CC3)C4)c2c1)c1cc(F)cc(F)c1 (centres unmarked) [Example 10]
Please tell me which of the two, 1 or 2 , has the higher reported IC50 value. Respond using the label that marks the chosen record. 1

[1] CC(Oc1ccc2[nH]nc(-c3nc4c([nH]3)CN(C(=O)OC3CCN(C)C3)C4)c2c1)c1cc(F)cc(F)c1 (centres unmarked) [Example 30]
[2] CC(Oc1ccc2[nH]nc(-c3nc4c([nH]3)CN(C3CC(N(C)C)C3)C4)c2c1)c1cc(F)cc(F)c1 (centres unmarked) [Example 44]
[3] CC(Nc1ccc2[nH]nc(-c3nc4c([nH]3)CNC4)c2c1)c1cc(F)cc(F)c1 (centres unmarked) [Example 1]
Could you please sort these 3 entries by IC50 from high to low? # format: label list in the order the request specifies 3, 2, 1
(3: 5.5 nM, 2: 1.8 nM, 1: 1.2 nM)
